System: RPMI-2650
Assay: cells
Type: functional, cell-based, Homo sapiens
Conditions: Homo sapiens, RPMI-2650
Description: SANGER: Inhibition of human RPMI-2650 cell growth in a cell viability assay.
pIC50: −log10 of the molar value.
assay_metric: pIC50

Oc1ccc2ccccc2c1SSc1c(O)ccc2ccccc12    < 4.49

Turning now to a further compound:
Prompt line: For CC(C)CCN1c2nc(Nc3cc(F)c(O)c(F)c3)ncc2N(C)C(=O)C1C (configuration not stated) , write its pIC50.
Response line: < 5.30

====

System: ETK-1;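 further: growth inhibition of human ETK-1 cells, read out with a cell viability assay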
Test: cells
Type: functional, cell-based, Homo sapiens
Settings: Homo sapiens, ETK-1
Description: SANGER: Inhibition of human ETK-1 cell growth in a cell viability assay.
Provide the reported IC50 of each item.
Give bare numbers, in µM.

Nc1ccn([C@@H]2O[C@H](CO)[C@@H](O)C2(F)F)c(=O)n1    0.00808
Cc1cc([N+](=O)[O-])ccc1NS(=O)(=O)c1cc(Cl)ccc1Cl    6.35
CCN(CC)CCNC(=O)c1c(C)[nH]c(/C=C2\C(=O)Nc3ccc(F)cc32)c1C    1.29

Consider the record given below.
Prompt line: Give the measured IC50 for COc1cc2ncn(-c3cc(OCc4ccccc4C(F)(F)F)c(C(N)=O)s3)c2cc1OC [GW843682X]
Response line: 0.0173

====

System: SW1088;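 further: growth inhibition of human SW1088 cells, read out by a cell viability assay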
Test: cells
Type: functional, cell-based, Homo sapiens
Settings: sw1088
Description: SANGER: Inhibition of human SW1088 cell growth in a cell viability assay.
assay_metric: pIC50
One number for each entry, as −log10 of the molar value.

Prompt line: Quick one: give measured pIC50 for "BLEOMYCIN"
Response line: 3.09

====

Test system: NCI-H1993;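 further: growth inhibition of the cancer cell line, assessed with a cell viability assay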
Assay: cells
Type: functional, cell-based, Homo sapiens
Settings: nci-h1993
Description: SANGER: Inhibition of human NCI-H1993 cell growth in a cell viability assay.
assay_metric: pIC50
Answers are plain numbers, as −log10 of the molar value.

Prompt line: Output pIC50 of "CISPLATIN"
Response line: 2.87

====

System: SK-MEL-2
Assay: cells
Type: functional, cell-based, Homo sapiens
Details: Homo sapiens, SK-MEL-2
Description: SANGER: Inhibition of human SK-MEL-2 cell growth in a cell viability assay.
Please respond with reported IC50 for every item in the list.

Sample answers from the record:
Nc1ccn([C@@H]2O[C@H](CO)[C@@H](O)C2(F)F)c(=O)n1 [GEMCITABINE]    > 1.02 µM
Cc1cc([N+](=O)[O-])ccc1NS(=O)(=O)c1cc(Cl)ccc1Cl    1.72 µM
CC[C@H](CO)Nc1nc(NCc2ccccc2)c2ncn(C(C)C)c2n1 [SELICICLIB]    > 16 µM
CN(C)C(=N)NC(=N)N [METFORMIN]    > 20000 µM
CCN(CC)CCNC(=O)c1c(C)[nH]c(/C=C2\C(=O)Nc3ccc(F)cc32)c1C [SUNITINIB]    > 8 µM
CO[C@H]1C[C@@H]2CC[C@@H](C)[C@@](O)(O2)C(=O)C(=O)N2CCCC[C@H]2C(=O)O[C@H]([C@H](C)C[C@@H]2CC[C@@H](OC(=O)C(C)(CO)CO)[C@H](OC)C2)CC(=O)[C@H](C)/C=C(\C)[C@@H](O)[C@@H](OC)C(=O)[C@H](C)C[C@H](C)/C=C/C=C/C=C/1C [TEMSIROLIMUS]    > 0.2 µM
COc1cc(-c2nn([C@H]3CC[C@H](N4CCN(C(C)=O)CC4)CC3)c3ncnc(N)c23)ccc1NC(=O)c1cc2ccccc2n1C    > 5.12 µM
Oc1ccc2ccccc2c1SSc1c(O)ccc2ccccc12    > 32 µM

Prompt line: Retrieve IC50 measured for Cn1cnc2c(F)c(Nc3ccc(Br)cc3Cl)c(C(=O)NOCCO)cc21 [SELUMETINIB] and print it.
Response line: 0.405 µM

Sourced from ChEMBL document CHEMBL1201861
